Listing of recorded pIC50 by entry.
Test system: Pfeiffer cells
Procedure details: Growth inhibition of Pfeiffer cells in a long term (14 days), CellTiter-Glo
Format: cell-based, Human
Condition context: Homo sapiens, 336 h, 14 days, read-out: Pfeiffer (14 days) IC50
pIC50: −log10 of the molar value.

Molecule: Fc1ccc2c(c1CNc1ncc(C3=CCOCC3)c3nncn13)CCO2 [E-Y1]
Assay system: Pfeiffer cells
pIC50: 8.40
//
Molecule: Fc1ccc2c(c1CNc1ncc(C3=CCCOCC3)c3nncn13)CCO2 [SL-ZYE-07]
Assay system: Pfeiffer cells
pIC50: 9.00
//
Molecule: Fc1ccc2c(c1CNc1ncc(C3=CCOc4ccccc43)c3nncn13)CCO2 [SL-ZYE-28]
Assay system: Pfeiffer cells
pIC50: 8.00
//
Molecule: O=S1(=O)CC=C(c2cnc(NCc3c(F)ccc4c3CCO4)n3cnnc23)CC1 [SL-ZYE-09]
Assay system: Pfeiffer cells
pIC50: 8.49
//
Molecule: CN1CC=C(c2cnc(NCc3c(F)ccc4c3CCO4)n3cnnc23)CC1 [SL-E23]
Assay system: Pfeiffer cells
pIC50: 8.70
//
Molecule: CC1(C)CC(c2cnc(NCc3c(F)ccc4c3CCO4)n3cnnc23)=CCO1 [SL-ZYE-119]
Assay system: Pfeiffer cells
pIC50: 8.40
//
Molecule: O=S(=O)(C1CC1)N1CC=C(c2cnc(NCc3c(F)ccc4c3CCO4)n3cnnc23)CC1 [SL-ZYE-146]
Assay system: Pfeiffer cells
pIC50: 8.52
//
Molecule: CC(=O)N1CC=C(c2cnc(NCc3c(F)ccc4c3CCO4)n3cnnc23)CC1 [E-Y15]
Assay system: Pfeiffer cells
pIC50: 9.15
//
Molecule: CC1C=C(c2cnc(NCc3c(F)ccc4c3CCO4)n3cnnc23)CC(C)O1 (centres unmarked) [SL-ZYE-24]
Assay system: Pfeiffer cells
pIC50: 8.22
//
Molecule: CCS(=O)(=O)N1CC=C(c2cnc(NCc3c(F)ccc4c3CCO4)n3cnnc23)CC1 [SL-ZYE-144]
Assay system: Pfeiffer cells
pIC50: 9.10
//
Molecule: O=C(C1CC1)N1CC=C(c2cnc(NCc3c(F)ccc4c3CCO4)n3cnnc23)CC1 [SL-ZYE-162]
Assay system: Pfeiffer cells
pIC50: 8.92
//
Molecule: CN1CCC(c2cnc(NCc3c(F)ccc4c3CCO4)n3cnnc23)=CC1=O [SL-E24]
Assay system: Pfeiffer cells
pIC50: 8.52
//
Molecule: Cc1cc(C(=O)N2CC=C(c3cnc(NCc4c(F)ccc5c4CCO5)n4cnnc34)CC2)n(C)n1 [E-Y42]
Assay system: Pfeiffer cells
pIC50: 8.82
//
Molecule: CC1CC(c2cnc(NCc3c(F)ccc4c3CCO4)n3cnnc23)=CCO1 (centres unmarked) [SL-ZYE-196]
Assay system: Pfeiffer cells
pIC50: 8.40
//
Molecule: CS(=O)(=O)N1CC=C(c2cnc(NCc3c(F)ccc4c3CCO4)n3cnnc23)CC1 [E-Y13]
Assay system: Pfeiffer cells
pIC50: 9.00
//
Molecule: CC(C)S(=O)(=O)N1CC=C(c2cnc(NCc3c(F)ccc4c3CCO4)n3cnnc23)CC1 [SL-ZYE-145]
Assay system: Pfeiffer cells
pIC50: 9.00
//
Molecule: Fc1ccc2c(c1CNc1ncc(C3CCOCC3)c3nncn13)CCO2 [E-Y47]
Assay system: Pfeiffer cells
pIC50: 8.22

---

Procedure details: Liver microsomal stability (human)
Type: in vitro ADME
Condition context: human, liver microsomes, pH 7.4, human liver microsomes; read-out: Metabolic bioavailability MF %

Compound: Fc1ccc2c(c1CNc1ncc(C3=CCOCC3)c3nncn13)CCO2
bioavailability (%): 48.2
//
Compound: O=C(CN1CCOCC1)N1CC=C(c2cnc(NCc3c(F)ccc4c3CCO4)n3cnnc23)CC1
bioavailability (%): 37.3
//
Compound: Fc1ccc2c(c1CNc1ncc(C3CCOCC3)c3nncn13)CCO2
bioavailability (%): 74.3
//
Compound: CC(=O)N1CCC(c2cnc(NCc3c(F)ccc4c3CCO4)n3cnnc23)CC1
bioavailability (%): 89.6
//
Compound: CS(=O)(=O)N1CC=C(c2cnc(NCc3c(F)ccc4c3CCO4)n3cnnc23)CC1
bioavailability (%): 46.4
//
Compound: CC(=O)N1CC=C(c2cnc(NCc3c(F)ccc4c3CCO4)n3cnnc23)CC1
bioavailability (%): 54
//
Compound: CN(C)CC(=O)N1CC=C(c2cnc(NCc3c(F)ccc4c3CCO4)n3cnnc23)CC1
bioavailability (%): 88.8
//
Compound: O=C(C1CCOCC1)N1CC=C(c2cnc(NCc3c(F)ccc4c3CCO4)n3cnnc23)CC1
bioavailability (%): 50.6
